# key: entry, value: HepG2 cell 48 h Tox50 (A)
System: HepG2 cells
Conditions: human, 48 h
metric: HepG2 cell 48 h Tox50 (A)

1) CC1COc2c(Cl)cc(Cl)c3c2B(O1)OC3CN (stereo not drawn) [Example C7-Cl2, reference compound]
>50 µM
2) CC1COc2cccc3c2B(O1)OC3CN (stereo not drawn) [Example C11-H, reference compound]
> 50 µM
3) C[C@@]1(CO)COc2ccc(Cl)c3c2B(OC3CN)O1 (single isomer, unassigned)
>50 µM
4) C[C@@]1(CO)COc2ccc(Br)c3c2B(OC3CN)O1 (stereo partly drawn)
>50 µM
5) CC1(C)COB2OC(CN)c3c(Cl)ccc(c32)O1 (stereo not drawn) [Example C9-Cl, reference compound]
>50 µM
6) CC1(C)COB2OC(CN)c3cccc(c32)O1 (stereo not drawn) [Example C10-H, reference compound]
>50 µM
7) C[C@]1(CO)COc2ccc(Br)c3c2B(OC3CN)O1 (stereo partly drawn)
>50 µM
8) CC1(C)COc2cccc3c2B(OC3CN)O1 (stereo not drawn) [Example C12-H, reference compound]
24.5 µM
9) C[C@]1(CO)COc2ccc(Cl)c3c2B(OC3CN)O1 (stereo partly drawn)
>50 µM

---

Tested on: HepG2 cells
metric: Selectivity Index (A/B)

1. CCOc1ccc(Br)c2c1B(O)O[C@@H]2CN [Example C4-Br, reference compound]
320
2. CCOc1ccc(Cl)c2c1B(O)O[C@@H]2CN [Example C6-Cl, reference compound]
363

---

# key: entry, value: log10(MIC)
System: M. tuberculosis standard strain Mtb H37Rv
Assay: MIC determination against mycobacteria (resazurin, Middlebrook 7H9)
Format: cell-based, Mycobacterium tuberculosis
Conditions: Mycobacterium tuberculosis, H37RV, read-out: Mtb H37Rv MIC (B)
metric: log10(MIC) (log10 of the value in µM)

1. CC1(C)COc2ccc(Br)c3c2B(OC3CN)O1.Cl (stereo not drawn) [Example 9, hydrochloride]
-0.52
2. CC1COc2ccc(Cl)c3c2B(O1)OC3CN.Cl (stereo not drawn) [Example 7, Hydrochloride]
-0.70
3. Cl.NC[C@H]1OB2OCCOc3ccc(I)c1c32 [Example 6, hydrochloride]
-0.52
4. Cl.NCC1OB2OCCOc3ccc(F)c1c32 (stereo not drawn) [Example 5, hydrochloride]
-0.22
5. Cl.NCC1OB2OCCOc3ccc(Cl)c1c32 (stereo not drawn) [Example 3, hydrochloride]
-0.33
6. CC1COc2cccc3c2B(O1)OC3CN (stereo not drawn) [Example C11-H, reference compound]
0.19
7. CC1(C)COc2ccc(Cl)c3c2B(O[C@@H]3CN)O1.Cl [Example 12, Hydrochloride]
-1.10
8. C[C@]1(CO)COc2ccc(Br)c3c2B(OC3CN)O1 (stereo partly drawn) [Example 17]
-0.03
9. CC1COc2c(Cl)cc(Cl)c3c2B(O1)OC3CN (stereo not drawn) [Example C7-Cl2, reference compound]
0.40
10. CC1(C)COc2c(Cl)ccc3c2B(O[C@@H]3CN)O1 [Example C13-Cl, reference compound]
0.70
11. CC1(C)COc2ccc(Br)c3c2B(O[C@@H]3CN)O1.Cl [Example 10, Hydrochloride]
-0.80
12. C[C@]1(CO)COc2ccc(Cl)c3c2B(OC3CN)O1 (stereo partly drawn) [Example 15]
-0.03
13. C[C@@]1(CO)COc2ccc(Cl)c3c2B(OC3CN)O1 (single isomer, unassigned) [Example 14]
0.10
14. CC1(C)COB2OC(CN)c3c(Cl)ccc(c32)O1 (stereo not drawn) [Example C9-Cl, reference compound]
0.70
15. CC1COc2ccc(Br)c3c2B(O1)OC3CN.Cl (stereo not drawn) [Example 8, hydrochloride]
-0.52
16. NCC1OB2OCCOc3cccc1c32 (racemic) [Example C2-H, reference compound]
0.27
17. Cl.NCC1OB2OCCOc3ccc(Br)c1c32 (stereo not drawn) [Example 1, Hydrochloride]
-0.74
18. C[C@@]1(CO)COc2ccc(Br)c3c2B(OC3CN)O1 (stereo partly drawn) [Example 16]
0.10

---

The compounds below have reported Selectivity Index (A/B) for HepG2 cells.
metric: Selectivity Index (A/B)

1. CC1COc2ccc(Cl)c3c2B(O1)OC3CN.Cl (stereo not drawn)
>250
2. Cl.NC[C@H]1OB2O[C@H](CO)COc3ccc(F)c1c32
>10
3. CC1COc2ccc(Br)c3c2B(O1)OC3CN.Cl (stereo not drawn)
>167

---

# key: entry, value: MIC
Tested on: M. tuberculosis standard strain Mtb H37Rv
Experiment: MIC determination against mycobacteria (resazurin, Middlebrook 7H9)
Format: cell-based, Mycobacterium tuberculosis
Details: Mycobacterium tuberculosis, H37RV, read-out: Mtb H37Rv MIC (B)
metric: MIC

1. CC1(C)COB2OC(CN)c3cccc(c32)O1 (stereo not drawn) [Example C10-H, reference compound]
> 5 µM
2. CC1(C)COc2cccc3c2B(OC3CN)O1 (stereo not drawn) [Example C12-H, reference compound]
> 5 µM
3. NC[C@H]1OB2OCCOc3c(Cl)cc(Cl)c1c32 [Example C14-Cl2, reference compound]
> 5 µM
4. Cl.NC[C@H]1OB2OCCOc3ccc(Cl)c1c32 [Example 4, hydrochloride]
< 0.1 µM
5. CC1(C)COc2c(Cl)ccc3c2B(OC3CN)O1 (stereo not drawn) [Example C8-Cl, reference compound]
> 5 µM
6. Cl.NC[C@H]1OB2OCCOc3ccc(Br)c1c32 [Example 2, hydrochloride]
< 0.1 µM
